EXPERIMENT_SUMMARY: qHTS assay to identify small molecule antagonists of the progesterone receptor (PR) signaling pathway - cell viability counter screen (AID 1346798);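 also: HEK293T PR-UAS-bla cells stimulated with the agonist R5020; % is scaled to controls: 0 for no effect and ±100 for the full control effect; nearly all actives have a fitted effect of over 50% in size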
TEST_CONDITIONS: PR-UAS-bla HEK293T viability, CellTiter-Glo luminescence, 16 h; series mostly up to 92.4 µM
Inconclusive results are not listed. Calls of active or inactive are those of the source. Calls follow the shape of the dose curve; as a rule, active = well fitted cell-killing curve with a large enough effect in the repeat runs; inconclusive = weak or mixed curves, or effect the other way; inactive = no such curve, though single readings can be large or run the other way.
TEST_READOUT: activity change, negative = cytotoxicity

Worked cases, activity change, negative = cytotoxicity given:
# COMPOUND, activity change, negative = cytotoxicity
rows = [
    ("CC(C)Cn1cnc2c1c(=O)n(C)c(=O)n2C", "inactive"),
    ("O=C(Cl)c1ccccc1[N+](=O)[O-]", "inactive"),
    ("CC(C)CCOC(=O)c1ccccc1", "inactive"),
    ("NCc1ccc(S(N)(=O)=O)cc1", "inactive"),
    ("CCC(C)C(C)=O (stereo unspecified)", "inactive"),
    ("Cc1c(NC(=O)c2cccnc2)c(=O)n(-c2ccccc2)n1C", "inactive"),
]

stdin: Look up activity change, negative = cytotoxicity for this compound: COC(=O)c1cc(Cl)cc(Cl)c1
stdout: inactive

stdin: How about O=[N+]([O-])c1c(Cl)cc(Cl)cc1Cl ?
stdout: inactive

stdin: How about CCCCC1CCC(O)CC1 (stereo unspecified) ?
stdout: inactive

stdin: How about CO[Si](CCCn1c(=O)n(CCC[Si](OC)(OC)OC)c(=O)n(CCC[Si](OC)(OC)OC)c1=O)(OC)OC ?
stdout: inactive

stdin: How about COC(C)(OC)OC ?
stdout: inactive

stdin: How about C=CCN1C[C@H](C(=O)N(CCCN(C)C)C(=O)NCC)C[C@@H]2c3cccc4[nH]cc(c34)C[C@H]21 ?
stdout: inactive

stdin: How about CC1(C)O[C@H]2CC(=O)OC[C@]23[C@H]2CC[C@@]4(C)[C@H](c5ccoc5)OC(=O)[C@H]5O[C@]54[C@]2(C)C(=O)C[C@@H]13 ?
stdout: inactive

###

EXPERIMENT_SUMMARY: qHTS assay to test for compound auto fluorescence at 460 nm (blue) in HEK293 cell free culture (AID 720681); also: % is scaled to controls: 0 for no effect and ±100 for the full control effect
TEST_CONDITIONS: cell-free medium, autofluorescence 405/460 nm (blue); series mostly up to 91.3 µM
Calls of active or inactive are those of the source. Calls come from the whole dose curve; as a rule, active = well fitted curve in the direction sought with a large enough effect in the repeat runs; inconclusive = weak or mixed curves; inactive = flat fitted curve, though single readings scatter.
TEST_READOUT: fluorescence, % of fluorescent control

Worked cases, fluorescence, % of fluorescent control given:
# COMPOUND, fluorescence, % of fluorescent control
rows = [
    ("CC(C)COC(=O)c1ccccc1", "inactive"),
    ("CCCCSCCCC", "inactive"),
    ("OCCN1CCOCC1", "inactive"),
    ("O=C1CCCCO1", "inactive"),
    ("Cc1ccc(N)cc1S(=O)(=O)O", "inactive"),
    ("CC(=O)Nc1ccc(OC(=O)c2ccccc2OC(C)=O)cc1", "inactive"),
]

stdin: Look up fluorescence, % of fluorescent control for this compound: CCNC(=O)NCc1cccc(Cl)c1
stdout: inactive

stdin: How about CCCCCCCCCCCCCCCCCCOCCO ?
stdout: -0.0158% [at 18.6 µM] (inactive)

stdin: How about CC(=O)O[C@@H]1CC2CCC1(C)C2(C)C (some centres undefined) ?
stdout: inactive

###

EXPERIMENT_SUMMARY: qHTS assay for identifying genotoxic compounds that show differential cytotoxicity against isogenic chicken DT40 cell lines with known DNA damage response pathways - Rad54/Ku70 mutant cell line (AID 743015); also: % is scaled to controls: 0 for no effect and ±100 for the full control effect; nearly all actives have a fitted effect of over 60% in size
TEST_CONDITIONS: DT40 Rad54/Ku70 mutant viability, CellTiter-Glo, 40 h; series mostly up to 66.8 µM
Results filed as inconclusive are left out. Activity calls are given as the source filed them. Calls come from the whole dose curve; as a rule, active = well fitted cell-killing curve with a large enough effect in the repeat runs; inconclusive = weak or mixed curves; inactive = no such curve, though single readings can be large or run the other way.
Bench note: report the call from active, inactive

Before answering, review these 5 worked examples.
# COMPOUND, GROUP_LABEL
rows = [
    ("Cc1ccccc1C(N)=O", "inactive"),
    ("C=C(C)[C@@H]1CC=C(C)C(=O)C1", "inactive"),
    ("c1ccc(-c2nn[nH]n2)cc1", "inactive"),
    ("CC(C)(C)NC[C@H](O)COc1cccc2c1CCCC2=O", "inactive"),
    ("CC(C)[C@H]1CC[C@H](C)C[C@@H]1O", "inactive"),
]

Then this compound:
stdin: What did this assay record as the result for CCCC(CC)c1ccccc1 (stereo unspecified) ?
stdout: inactive

# credit: PubChem BioAssay (Tox21)
